The reported measurements were obtained from patent EP1724268A1.

Task for the reader: assign each of the following molecules its reported inhibition at 3 µM.
- Tested on: TGFβ signal
- test protocol: TGFβ signal inhibitory activity, (SBE)4-Luc reporter in A549 cells (Test Examples 1A and 1B)
- Format: cell-based, human
- condition context: Homo sapiens, A549; test compound 3 µM; Reference Examples, Table 1B; read-out: TGFβ inhibition rate, %
Give bare numbers, in %.

Past entries and their recorded results:
| molecule | target desc | value |
| --- | --- | --- |
| CCCCC(O)c1cc(C)ccc1Oc1ccnc2cc(OC)c(OC)cc12 (stereo not drawn) [r10] | TGFβ signal | 38 |
| COc1cc2c(Oc3ccc(C)cc3C(=O)c3ccccc3)ccnc2cc1OCCCCN1CCOCC1 [Compound r149] | TGFβ signal | 96 |
| COc1cc2c(Oc3ccc(C)cc3C(=O)c3ccccc3)ccnc2cc1OCCCN1CCC(CO)CC1 [r135] | TGFβ signal | 100 |
| COc1cc2c(Oc3ccc(C)cc3C(=O)c3ccccc3)ccnc2cc1OCCN1CCN(C)CC1 [Compound r129] | TGFβ signal | 100 |
| COc1cc2c(Oc3ccc(C)cc3C(=O)c3ccccc3)ccnc2cc1OCCCN1CCOCC1 [r139] | TGFβ signal | 99 |
| CCC(=O)c1cccc(F)c1Oc1ccnc2cc(OC)c(OC)cc12 [r43] | TGFβ signal | 0 |
| CCOC(=O)c1cc(Br)ccc1Oc1ccnc2cc(OC)c(OC)cc12 [Compound r85] | TGFβ signal | 87 |
| COc1cc2nccc(Oc3ccc(C)cc3Cl)c2cc1OC [Compound r3] | TGFβ signal | 0 |
| COc1cc2nccc(Oc3ccc(C)cc3C(=O)c3ccco3)c2cc1OC [Compound r60] | TGFβ signal | 63 |
| COc1cc2c(Oc3ccc(C)cc3C(=O)c3ccccc3)ccnc2cc1OCC1CO1 (stereo not drawn) [Compound r151] | TGFβ signal | 95 |

Provide inhibition at 3 µM for all items below, preserving their order.
1. COc1cc2nccc(Oc3ccc(C)c(C)c3)c2cc1OC [r15]
2. COc1cc2c(Oc3ccc(C)cc3C(=O)c3ccccc3)ccnc2cc1OCC(O)CN1CCNCC1 (stereo not drawn) [Compound r157]
3. CCC(=O)c1cc(OC(F)(F)F)ccc1Oc1ccnc2cc(OC)c(OC)cc12 [Compound r51]

Reply:
[41, 100, 71]

Hey, quick one: what's inhibition at 3 µM for each of these?
1. CCOC(=O)c1cc(-c2ccc(F)cc2F)ccc1Oc1ccnc2cc(OC)c(OC)cc12 [Compound r89]
2. CCC(=O)c1ccc(OC)cc1Oc1ccnc2cc(OC)c(OC)cc12 [r44]
3. COc1cc2c(Oc3ccc(C)cc3C(=O)c3ccccc3)ccnc2cc1OCCn1ccnc1 [Compound r131]
4. CCC(=O)c1cc(OC)ccc1Oc1ccnc2cc(OC)c(OC)cc12 [Compound r50]

Reply:
1: 20; 2: 97; 3: 96; 4: 100

Dear reader, for each entry below, please note its inhibition at 3 µM.
1. CCCCC(=O)c1cc(C)ccc1Oc1ccnc2cc(OC)c(OC)cc12 [Compound r52]
2. COc1cc2nccc(Oc3ccc(C)cc3C(=O)C3CCCC3)c2cc1OC [r58]
3. COc1cc2c(Oc3ccc(C)cc3C(=O)c3ccccc3)ccnc2cc1OCC(O)CN1CCC(N2CCCC2)CC1 (stereo not drawn) [r155]
4. COc1cc2nccc(Oc3ccc4cc(Br)ccc4c3)c2cc1OC [r18]
5. COc1ccc(Oc2ccnc3cc(OCCCCl)c(OC)cc23)c(C(C)=O)c1 [Compound r121]
6. COc1cc2c(Oc3ccc(C)cc3C(=O)c3ccccc3)ccnc2cc1OCCCNCCO [Compound r133]
7. COc1cc2nccc(Oc3cc(C)c(Cl)cc3C(=O)c3ccccc3)c2cc1OC [r75]
8. COc1ccc(Oc2ncnc3cc(OC)c(OC)cc23)c(C(C)=O)c1 [r162]

Reply:
1. 97
2. 90
3. 100
4. 15
5. 100
6. 100
7. 97
8. 5

Provide each entry's inhibition at 3 µM from the list below.
1. CCC(O)c1cc(C)ccc1Oc1ccnc2cc(OC)c(OC)cc12 (stereo not drawn) [Compound r9]
2. COc1ccc(Oc2ccnc3cc(OCCN4CCOCC4)c(OC)cc23)c(C(C)=O)c1 [r120]
3. CC=Cc1ccccc1Oc1ccnc2cc(OC)c(OC)cc12 [Compound r2]
4. COc1cc2c(Oc3ccc(C)cc3C(=O)c3ccccc3)ccnc2cc1OCCN1CCC(CO)CC1 [Compound r126]
5. CCC(=O)c1cc(I)ccc1Oc1ccnc2cc(OC)c(OC)cc12 [Compound r47]
6. COc1cc2c(Oc3ccc(C)cc3C(=O)c3ccccc3)ccnc2cc1OCC(O)CN1CCC(CO)CC1 (stereo not drawn) [r154]

Reply:
[29, 94, 13, 100, 45, 99]
